Below is a list of entries, each paired with its recorded IC50 value.
System: Plasmodium falciparum
Assay: Antiplasmodial activity against Plasmodium falciparum 3D7
Format: functional, organism-based
Reply with just the number (in µM).

>>> recorded_value("O=c1[nH]cnc2[nH]nnc12")
38

query: Please look at this compound and report its IC50: Sc1ncnc2nc[nH]c12 [MERCAPTOPURINE ANHYDROUS]
result: 2

query: Please look at this compound and report its IC50: Nc1nc(O)c2[nH]nnc2n1 [8-AZAGUANINE]
result: 18

query: Please look at this compound and report its IC50: Nc1nc(Cl)c2nc[nH]c2n1 [6-CHLOROGUANINE]
result: 10

query: Please look at this compound and report its IC50: Nc1nc2[nH]cnc2c(=S)[nH]1 [THIOGUANINE]
result: 10

query: Please look at this compound and report its IC50: Nc1nc2[nH]cnc2c(=O)[nH]1 [GUANINE]
result: 60

Recorded values, source ChEMBL document CHEMBL1138206.
